target: murine COX-2 (Mus musculus)
Sequence (Q05769 18-604): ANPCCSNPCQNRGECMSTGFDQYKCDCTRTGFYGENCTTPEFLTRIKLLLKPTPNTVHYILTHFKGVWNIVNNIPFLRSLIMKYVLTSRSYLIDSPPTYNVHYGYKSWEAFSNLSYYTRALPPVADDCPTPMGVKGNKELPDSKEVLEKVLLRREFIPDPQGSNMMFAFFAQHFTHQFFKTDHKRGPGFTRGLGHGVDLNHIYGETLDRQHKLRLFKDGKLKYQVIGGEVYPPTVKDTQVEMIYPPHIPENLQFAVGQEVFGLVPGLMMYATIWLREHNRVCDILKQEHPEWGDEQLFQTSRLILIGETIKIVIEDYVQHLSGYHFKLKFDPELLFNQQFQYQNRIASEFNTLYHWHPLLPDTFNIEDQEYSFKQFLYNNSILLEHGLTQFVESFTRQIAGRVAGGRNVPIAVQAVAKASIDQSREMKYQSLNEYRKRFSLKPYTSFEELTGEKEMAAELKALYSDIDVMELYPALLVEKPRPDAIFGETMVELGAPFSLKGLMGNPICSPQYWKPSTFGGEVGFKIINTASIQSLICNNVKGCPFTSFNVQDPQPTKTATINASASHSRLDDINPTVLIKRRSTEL
Measurement label: IC50 (µM)
Numeric only. Scale: µM

-- ask Provide value of IC50 for this record tested with murine COX-2 (Mus musculus): O=C(CC1=C/C(=C\c2ccc(-c3ccccc3)cc2)c2ccc(F)cc21)NS(=O)(=O)C(F)(F)F [compound 21c]
-- reply 14
